# protocol_description: Saturated solubility of API in different solvents/media
# Assay type: physicochemical
# setup_conditions: organic solvent or mixture, thermodynamic from solid; Acetone, room temperature, 24 hours

compound: C/C=C/c1cc(Nc2cc(N3CCN(C)CC3)nc(Oc3cc(F)c4[nH]c(C)cc4c3F)n2)n[nH]1 [API]
solubility at 24 h, µg/mL: 5990

====

# protocol_description: Saturated solubility of API in different solvents/media
# Format: physicochemical
# setup_conditions: organic solvent or mixture, thermodynamic from solid; Ethyl acetate, room temperature, 24 hours
measured_parameter: solubility at 24 h

query_smiles: C/C=C/c1cc(Nc2cc(N3CCN(C)CC3)nc(Oc3cc(F)c4[nH]c(C)cc4c3F)n2)n[nH]1
measured_parameter: solubility at 24 h
observed: 4980 µg/mL
